Each recorded value in this set is attributed to patent US20260022171A1.

Answer each item with its documented pKd.
- subject.of.test: T1, hu-CD200R1-iso4-Alt ECD (human)
- T1 construct: also called isoform 4 alt
- T1 chain: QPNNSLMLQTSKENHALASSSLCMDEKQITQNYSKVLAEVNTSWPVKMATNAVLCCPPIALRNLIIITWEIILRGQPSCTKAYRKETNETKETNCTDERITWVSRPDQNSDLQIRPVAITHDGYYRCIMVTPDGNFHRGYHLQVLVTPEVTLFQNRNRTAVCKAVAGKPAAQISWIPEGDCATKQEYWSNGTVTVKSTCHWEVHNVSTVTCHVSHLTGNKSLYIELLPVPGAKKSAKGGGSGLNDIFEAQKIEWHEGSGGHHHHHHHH
- protocol.description: SPR Biacore 8K 37C; antibody on Protein A chip, CD200R1 analyte;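 further: sensorgrams corrected by subtracting reference and buffer signals, then analysed with Biacore 8K Evaluation Software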
pKd is a log-scale quantity: -log10 of the concentration expressed in molar.

Look up pKd: h10F6.V3 (antibody, IgG1, V domains shown, IgG1 variant of h10F6) VH: EVQLQESGPGLVKPSETLSLTCTVSGFSLTNYRVSWVRQPPGKGLEWLGVMYAGGGTNYNSVFKSRLTISKDNSKNQVSLKLSSVTAADTAVYYCARERPLTGVMDNWGQGTLVTVSS VL: DIVLTQSPDSLAVSLGERATINCRASESVDYSGNSFMHWFQQKPGQPPKLLIYRASNLESGIPDRFSGSGSRTDFTLTISSLQAEDVAVYYCHQSNEDPPTFGGGTKVEIKR 9.03

Look up pKd: h10F6.V2 (antibody, IgG1, V domains shown, IgG1 variant of h10F6) VH: EVQLQESGPGLVKPSETLSLTCTVSGFSLTNYWVSWVRQPPGKGLEWLGTMWAGGGTNYNSVFKSRLTISKDNSKNQVSLKLSSVTAADTAVYYCARERPLTGPMDYWGQGTLVTVSS VL: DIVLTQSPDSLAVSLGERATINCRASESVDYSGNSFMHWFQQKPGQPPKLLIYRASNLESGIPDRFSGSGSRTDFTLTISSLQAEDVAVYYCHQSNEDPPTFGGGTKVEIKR 8.18

Look up pKd: h10F6.V1 (antibody, IgG1, V domains shown, differs by 3 residues in the heavy chain CDRs and 1 in the light chain CDRs; also called surrogate antibody) VH: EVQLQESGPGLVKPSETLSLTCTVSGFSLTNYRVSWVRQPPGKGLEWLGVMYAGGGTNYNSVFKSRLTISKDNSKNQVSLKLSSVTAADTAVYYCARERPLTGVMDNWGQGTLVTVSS VL: DIVLTQSPDSLAVSLGERATINCRASESVDYSGNSFMHWFQQKPGQPPKLLIYRASNLESGIPDRFSGSGSRTDFTLTISSLQAEDVAVYYCHQSNWDPPTFGGGTKVEIKR 9.09

Look up pKd: h10F6.V4 (antibody, IgG1, V domains shown, IgG1 variant of h10F6) VH: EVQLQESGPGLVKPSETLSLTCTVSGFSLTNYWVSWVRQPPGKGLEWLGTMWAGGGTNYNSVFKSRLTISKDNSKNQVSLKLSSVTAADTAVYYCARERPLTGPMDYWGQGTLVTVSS VL: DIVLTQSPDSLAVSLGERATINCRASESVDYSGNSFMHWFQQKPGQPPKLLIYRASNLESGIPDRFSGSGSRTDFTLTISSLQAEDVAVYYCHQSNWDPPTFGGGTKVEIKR 8.00
